Source listed as patent US6321750A.

outcome measure: MCC

Bench note, several cell lines: entry CC(O)C(=O)[O-].CC(O)C(=O)[O-].[Zn+2] (stereo not shown) [Zinc lactate] , its MCC = ~200 mM
